Source: ChEMBL document CHEMBL2086255

- Organism: Homo sapiens
- ASSAY_COMMENT: Selectivity ratio of IC50 for human F13a to IC50 for human recombinant TG2
Think of 10 as a floor: if Ratio IC50 stands on it or above, it is label 1; beneath it, label 0.

[in] Decide: is the reported value of Ratio IC50 for C=CC(=O)Nc1ccc(S(=O)(=O)N2CCN(C(=O)OCc3ccccc3)CC2)cc1 equal to or greater than 10?
[out] label 0

[in] In plain terms: is recorded Ratio IC50 at least 10 for C=CC(=O)Nc1ccc(S(=O)(=O)N2CCN(c3ncccc3C)CC2)cc1 ?
[out] label 1

[in] Would you say C=CC(=O)Nc1ccc(S(=O)(=O)N2CCN(C(=O)N3CCC4CCCCC4C3)CC2)cc1 (stereo unspecified) shows Ratio IC50 at minimum 10?
[out] label 1

[in] Could you tell me if the measured Ratio IC50 of C=CC(=O)Nc1ccc(S(=O)(=O)N2CCN(C(=O)OC(C)(C)C)CC2)cc1 reaches 10 or more?
[out] label 0

[in] Hi, just wondering whether C=CC(=O)Nc1ccc(S(=O)(=O)N2CCN(c3ccccc3C(F)(F)F)CC2)cc1 shows Ratio IC50 of 10 or higher.
[out] label 0

[in] # bool: Ratio IC50 of C=CC(=O)Nc1ccc(S(=O)(=O)N2CCN(c3ccccc3)CC2)cc1 >= 10
[out] label 0

[in] Determine whether this compound has Ratio IC50 no lower than 10: C=CC(=O)Nc1ccc(S(=O)(=O)N2CCN(c3ccccn3)CC2)cc1
[out] label 0

[in] Has C=CC(=O)Nc1ccc(S(=O)(=O)N2CCN(c3ncccc3C(F)(F)F)CC2)cc1 a recorded Ratio IC50 greater than or equal to 10?
[out] label 0

[in] In plain terms: is recorded Ratio IC50 at least 10 for C=CC(=O)Nc1ccc(S(=O)(=O)N2CCN(C(=O)C34CC5CC(CC(C5)C3)C4)CC2)cn1 ?
[out] label 1

[in] Evaluate C=CC(=O)Nc1ncc(S(=O)(=O)N2CCN(C(=O)C34CC5CC(CC(C5)C3)C4)CC2)cn1 : Ratio IC50 at minimum 10?
[out] label 1

[in] For this compound, is measured Ratio IC50 10 or higher? C=CC(=O)Nc1ccc(S(=O)(=O)N2CCN(C(=O)C34CC5CC(CC(C5)C3)C4)CC2)cc1
[out] label 1
